target: human vasopressin V1a receptor (Homo sapiens, UniProt P37288); test: Functional assay on human vasopressin V1a receptor expressing cell line (intracellular Ca2+ fluorescence); assay type: cell-based; details: 1321N1 cells, (Arg8)-vasopressin at EC80; read-out: IC50 (nM) on hV1a cell line
Sequence (P37288 whole entry): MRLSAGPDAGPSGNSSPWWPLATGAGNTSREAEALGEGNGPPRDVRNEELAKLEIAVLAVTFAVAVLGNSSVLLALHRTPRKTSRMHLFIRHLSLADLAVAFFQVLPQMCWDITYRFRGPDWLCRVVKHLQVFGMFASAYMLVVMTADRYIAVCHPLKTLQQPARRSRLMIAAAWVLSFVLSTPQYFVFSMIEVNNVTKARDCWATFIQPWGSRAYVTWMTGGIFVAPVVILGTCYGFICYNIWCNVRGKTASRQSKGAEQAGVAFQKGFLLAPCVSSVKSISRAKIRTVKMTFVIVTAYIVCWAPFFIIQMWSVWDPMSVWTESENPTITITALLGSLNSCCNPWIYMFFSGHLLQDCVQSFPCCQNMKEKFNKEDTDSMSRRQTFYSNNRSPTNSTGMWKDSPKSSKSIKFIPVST
metric: log10 IC50 (log10 of the value in nM)
Friendly reminder: values = log10 of IC50, unit nM.

In the examples that follow, each entry is paired with its recorded log10 IC50.
                                   compound      metric  reported_value
0  NC1Cc2ccccc2-n2c(nnc2[C@H]2CC[C@H](Oc3ccccn3)CC2)C1 (stereo partly drawn)  log10 IC50            2.23
1  OCCOC1Cc2cc(Cl)ccc2-n2c(nnc2[C@H]2CC[C@H](Oc3ccccn3)CC2)C1 (stereo partly drawn)  log10 IC50            0.20
2  NC1Cc2cc(F)ccc2-n2c(nnc2[C@H]2CC[C@H](Oc3ccccn3)CC2)C1 (stereo partly drawn)  log10 IC50            1.67
3  CN(C)C1Cc2cc(Cl)ccc2-n2c(nnc2N2CCC3(CC2)OCc2ccccc23)C1 (stereo not drawn)  log10 IC50            0.79
4  O=C(N[C@@H]1Cc2cc(Cl)ccc2-n2c(nnc2[C@H]2CC[C@H](Oc3ccccn3)CC2)C1)C(F)(F)F  log10 IC50            0.15

Lab note: `CCC(C)(C)C(=O)N[C@H]1Cc2cc(Cl)ccc2-n2c(nnc2[C@H]2CC[C@H](Oc3ccccn3)CC2)C1` gave log10 IC50 of 3.18

The reported log10 IC50 of the compound `N#CCC(=O)N[C@@H]1Cc2cc(Cl)ccc2-n2c(nnc2[C@H]2CC[C@H](Oc3ccccn3)CC2)C1` was 0.08

log10 IC50 recorded for this compound, `Clc1ccc2c(c1)CC1(Cc3nnc([C@H]4CC[C@H](CN5CCCCC5)CC4)n3-2)OCCO1` , is 2.14

The recorded log10 IC50 for `COc1ccc(CN[C@H]2CC[C@H](c3nnc4n3-c3ccc(Cl)cc3CC3(C4)OCCO3)CC2)cc1` is 1.71

====

target: human vasopressin V1a receptor (Homo sapiens, UniProt P37288); assay: Human vasopressin V1a receptor binding assay; settings: 1321N1 cell membranes, [3H]vasopressin; read-out: Ki (nM) on hV1a cell line
Heads up, the class ranges for Ki are lo (below 0.5 nM), med (0.5 nM to below 2 nM), hi (2 nM or more)

In [3]: df
Out[3]:
                                   molecule  label
0  OCCOC1Cc2cc(Cl)ccc2-n2c(nnc2[C@H]2CC[C@H](Oc3ccccn3)CC2)C1 (stereo partly shown)     lo

# bin lookup: classify `CC(C)(C)CN[C@H]1Cc2cc(Cl)ccc2-n2c(nnc2[C@H]2CC[C@H](Oc3ccccn3)CC2)C1` by its Ki
med

Where would `C=CC(=O)N[C@H]1Cc2cc(Cl)ccc2-n2c(nnc2[C@H]2CC[C@H](Oc3ccccn3)CC2)C1` land among the classes by reported Ki?
hi

====

Target: human vasopressin V1a receptor (Homo sapiens, UniProt P37288)
Test: Functional assay on human vasopressin V1a receptor expressing cell line (intracellular Ca2+ fluorescence)
Assay type: cell-based
Conditions: 1321N1 cells, (Arg8)-vasopressin at EC80; read-out: IC50 (nM) on hV1a cell line
Description: Functional Assay to Test Compounds on Human Vasopressin V1a Receptor Expressing Cell Line The ordinary secondary messenger pathway of the measured GPCR receptor was used, the endogenous Gq-associated system. Using 30,000 cells/plate, compounds were measured on 96-well plates. […] The materials to be measured were administered in 15 to 20 minutes pretreatment, at least two parallels of each compound in each concentration was measured. […] The total AVP concentration-response curve was recorded on each plate. […]
# IC50 annotations
Report the value in nM with no unit label.

Recorded results for 8 compounds are shown here.
                                   compound  reported_value
0  CN(C)CCC(=O)N[C@@H]1Cc2cc(Cl)ccc2-n2c(nnc2[C@H]2CC[C@H](Oc3ccccn3)CC2)C1 [Example 179]             1.4
1  Cc1ccc2c(c1)CC(NC(C)C)Cc1nnc([C@H]3CC[C@H](Oc4ccccn4)CC3)n1-2 (stereo partly drawn) [Example 38]              30
2  N[C@@H](C(=O)N[C@@H]1Cc2cc(Cl)ccc2-n2c(nnc2[C@H]2CC[C@H](Oc3ccccn3)CC2)C1)c1ccccc1 [Example 14]              10
3  COC1Cc2cc(Cl)ccc2-n2c(nnc2[C@H]2CC[C@H](N3CCN(C)CC3)CC2)C1 (stereo partly drawn) [Example 182]             416
4  C#CCN(C)[C@H]1Cc2cc(Cl)ccc2-n2c(nnc2[C@H]2CC[C@H](Oc3ccccn3)CC2)C1 [Example 209]             1.6
5  O=C(N[C@@H]1Cc2cc(Cl)ccc2-n2c(nnc2[C@H]2CC[C@H](Oc3ccccn3)CC2)C1)C1CCC1 [Example 125]             2.3
6  CO[C@]1(C(F)(F)F)CC[C@@H](c2nnc3n2-c2ccc(Cl)cc2CC2(C3)OCCO2)CC1 [Example 235]              22
7  Clc1ccc2c(c1)CC1(Cc3nnc(C4CCN([C@@H]5CCOC5)CC4)n3-2)OCCO1 [Example 188]             5.3

Now consider the entry below.
Given item CC(=O)N[C@@H]1Cc2cc(Cl)ccc2-n2c(nnc2[C@H]2CC[C@H](Oc3ccccn3)CC2)C1 [Example 168] , the value recorded as its IC50 is 0.8

====

target: human vasopressin V1a receptor (Homo sapiens); assay: Functional assay on human vasopressin V1a receptor expressing cell line (intracellular Ca2+ fluorescence); assay type: cell-based; conditions: 1321N1 cells, (Arg8)-vasopressin at EC80; read-out: IC50 (nM) on hV1a cell line
metric: IC50 (nM)
Give the value, in units of nM, as a plain number.

                                   compound  metric  reported_value
0  CC(=O)N[C@H]1Cc2cc(Cl)ccc2-n2c(nnc2[C@H]2CC[C@H](Oc3ccccn3)CC2)C1    IC50              33
1  CN(C)C1Cc2cc(F)ccc2-n2c(nnc2[C@H]2CC[C@H](Oc3ccccn3)CC2)C1 (stereo partly shown)    IC50             9.4
2  CC(C)NC1Cc2ccccc2-n2c(nnc2[C@H]2CC[C@H](Oc3ccccn3)CC2)C1 (stereo partly shown)    IC50              94
3  FC(F)(F)CN[C@H]1Cc2cc(Cl)ccc2-n2c(nnc2[C@H]2CC[C@H](Oc3ccccn3)CC2)C1    IC50             3.6
4  OC1Cc2cc(C(F)(F)F)ccc2-n2c(nnc2[C@H]2CC[C@H](Oc3ccccn3)CC2)C1 (stereo partly shown)    IC50             140

Sure, the documented IC50 for `CC(C)N1CC[C@]2(CC[C@H](c3nnc4n3-c3ccc(Cl)cc3CC3(C4)OCCO3)CC2)C1=O` is 20

Lab book: IC50 of `CCN[C@H]1Cc2cc(Cl)ccc2-n2c(nnc2[C@H]2CC[C@H](Oc3ccccn3)CC2)C1` noted as 18

IC50 measured on COC1Cc2cc(Cl)ccc2-n2c(nnc2[C@H]2CC[C@@H](N3CCN(C)CC3)CC2)C1 (stereo partly shown) = 2120

The reported IC50 of the compound `Clc1ccc2c(c1)CC1(Cc3nnc(N4CCN(c5ncccc5Cl)CC4)n3-2)OCCO1` was 0.9

The compound listed as COc1ccc2c(c1)CC(NC(C)C)Cc1nnc([C@H]3CC[C@H](Oc4ccccn4)CC3)n1-2 (stereo partly shown) has a reported IC50 of 85

IC50 measured on `Clc1ccc2c(c1)CC1(Cc3nnc(N4CCC5(CC4)OCc4ccccc45)n3-2)OCCO1` = 0.7

====

target: human vasopressin V1a receptor (Homo sapiens, UniProt P37288); experiment: Human vasopressin V1a receptor binding assay; settings: 1321N1 cell membranes, [3H]vasopressin; read-out: Ki (nM) on hV1a cell line
metric: Ki (nM)
Numeric only. Scale: nM

>>> print(df.to_string())
                                   compound  metric  readout_unit  reported_value
0  CO[C@H]1Cc2cc(Cl)ccc2-n2c(nnc2[C@H]2CC[C@H](C(F)(F)F)CC2)C1 (single isomer, unassigned)      Ki            nM             0.4

Lab note: `CN[C@H]1Cc2cc(Cl)ccc2-n2c(nnc2[C@H]2CC[C@H](Oc3ccccn3)CC2)C1` gave Ki of 1.7

CN(C)C1Cc2cc(Cl)ccc2-n2c(nnc2[C@H]2CC[C@H](Oc3ccccn3)CC2)C1 (some centres unmarked) yielded Ki of 0.5

Form: compound = FC1(F)CCC(NC2Cc3cc(Cl)ccc3-n3c(nnc3[C@H]3CC[C@H](Oc4ccccn4)CC3)C2)CC1 (some centres unmarked) ; Ki = 1.4

# Ki (compound: `N#Cc1ccc2c(c1)CC1(Cc3nnc([C@H]4CC[C@H](C(=O)N5CCCCC5)CC4)n3-2)OCCO1` ) is 10.2

Sure, the documented Ki for CCO[C@]1(CC)CC[C@@H](c2nnc3n2-c2ccc(Cl)cc2CC(N(C)C)C3)CC1 (some centres unmarked) is 7
